# System: HCC-2998 colon
# Protocol Notes: NCI-60 one-dose screen, 48 h
# Conditions Used: 10 µM unless noted
About 83,000 compounds went through this panel and 20% of them were active in at least one assay; those are over-represented in the sample as a whole. Activity calls are given as the source filed them. The calls were made as follows: active = growth percent below 10; inactive = the rest.
Could you please pick one outcome from this set? True (active), False (inactive)

{"Molecule": "c1ccc(-c2c(-c3ccccc3)[n+](Cc3ccc4ccccc4c3)c(-c3ccc(-c4nc5ccccc5s4)cc3)n2Cc2ccc3ccccc3c2)cc1", "Classification": "True"}

Prompt: Field: outcome | Entry: N#CN1CC[C@H](C(=O)Nc2cc3cc(C(N)=O)ccc3cn2)C1
Response: True
